- Test System: FR (Homo sapiens)
- Construct: to FR in KB and Cal51 tumor crude homogenate; from tissue; host or cells: KB and Cal51 tumour xenograft crude homogenates
- Sequence (P15328 25-234): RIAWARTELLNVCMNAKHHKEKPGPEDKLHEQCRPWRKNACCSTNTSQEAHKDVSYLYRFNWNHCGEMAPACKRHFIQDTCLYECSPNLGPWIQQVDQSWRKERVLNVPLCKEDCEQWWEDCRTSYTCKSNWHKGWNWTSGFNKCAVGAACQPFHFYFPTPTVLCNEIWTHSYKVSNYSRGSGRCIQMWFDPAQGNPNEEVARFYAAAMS
- Assay Remarks: Binding to FR in Cal51 xenograft tumor crude homogenate (concentration dependent binding, Scatchard analysis)
- Test Conditions: Cal51 xenografts, tumor crude homogenate
Outcome Measure: Kd (nM)
Write the number in nM without appending the unit.

Given Nc1nc2ncc(CNc3ccc(C(=O)N[C@@H](CCC(=O)NCCOCCOCCNC(=O)CN4CCN(CC(=O)O)CCN(CC(=O)O)CC4)C(=O)O)cc3)nc2c(=O)[nH]1 [^18F-AIF-QC07017] , respond with its Kd.
1.1
